Listed here are compounds together with their documented IC50.
Molecular target: PLK1 (Homo sapiens, UniProt P53350)
Sequence (P53350 whole entry): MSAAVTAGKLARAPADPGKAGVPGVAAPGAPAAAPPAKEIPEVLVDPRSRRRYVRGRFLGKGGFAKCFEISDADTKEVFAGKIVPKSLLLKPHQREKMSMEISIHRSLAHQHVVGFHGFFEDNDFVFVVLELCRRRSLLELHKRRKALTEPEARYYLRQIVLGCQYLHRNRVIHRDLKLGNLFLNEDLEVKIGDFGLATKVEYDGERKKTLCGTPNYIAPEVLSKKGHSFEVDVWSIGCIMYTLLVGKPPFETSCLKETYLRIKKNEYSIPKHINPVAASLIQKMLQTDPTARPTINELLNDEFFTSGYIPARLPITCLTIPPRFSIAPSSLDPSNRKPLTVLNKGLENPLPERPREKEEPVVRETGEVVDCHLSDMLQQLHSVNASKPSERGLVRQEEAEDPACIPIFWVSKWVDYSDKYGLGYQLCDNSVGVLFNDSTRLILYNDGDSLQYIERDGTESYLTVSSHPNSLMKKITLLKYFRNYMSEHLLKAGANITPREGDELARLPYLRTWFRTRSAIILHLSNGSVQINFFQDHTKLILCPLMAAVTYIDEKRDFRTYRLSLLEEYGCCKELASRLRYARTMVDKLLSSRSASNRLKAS
Assay: PLK TR-FRET peptide assay, PLK1
Format: biochemical
Details: GST-PLK1, 60 min reaction

>  <COMPOUND>
CCC1C(=O)N(C)c2cnc(-n3ccnc3)nc2N1c1ccccc1 (stereo not shown) [Example 300]

>  <IC50>
1 to 10 µM

$$$$
>  <COMPOUND>
CC[C@@H]1C(=O)N(C)c2cnc(-n3ccnc3-c3ccc(F)cc3)nc2N1C1CCC1 [Example 50]

>  <IC50>
1 to 10 µM

$$$$
>  <COMPOUND>
CC[C@@H]1C(=O)N(C)c2cnc(-n3ccnc3-c3cncnc3)nc2N1C1CC1 [Example 143]

>  <IC50>
10 to 50 µM

$$$$
>  <COMPOUND>
CC[C@@H]1C(=O)N(C)c2cnc(-n3ccnc3N3C(=O)CCC3=O)nc2N1C1CCC1 [Example 112]

>  <IC50>
10 to 50 µM

$$$$
>  <COMPOUND>
CC[C@]1(C)C(=O)N(C)c2cnc(-c3cn[nH]c3-c3nccs3)nc2N1CCC(F)(F)F [Example 310]

>  <IC50>
< 1 µM

$$$$
>  <COMPOUND>
[2H]C([2H])([2H])N1C(=O)[C@H](C([2H])([2H])C([2H])([2H])[2H])N(C([2H])(C([2H])([2H])[2H])C([2H])([2H])[2H])c2nc(-n3ccnc3-c3cccc(F)c3)ncc21 [Example 201]

>  <IC50>
10 to 50 µM

$$$$
>  <COMPOUND>
CC[C@@]12CCCN1c1nc(-n3ccnc3-c3cc(F)cc(F)c3)ncc1N(C)C2=O [Example 226]

>  <IC50>
10 to 50 µM

$$$$

Data origin, for the record: patent US8541418B2
